- EXPERIMENTAL_SYSTEM: GST-RIPK2 fusion protein (human RIPK2, amino acids 1-310) (Homo sapiens, UniProt O43353)
- Construct: made in house; host or cells: baculovirus infected Sf9 cells
- METHOD_DESCRIPTION: RIPK2 binding competition assay (TR-FRET, Tracer 199 displacement)
- PARTICULARS: 10 nM Tracer 199, 1 nM GST-RIPK2, read-out: RIPK2 IC50
pIC50: −log10 of the molar value.
VALUE_KIND: pIC50

1. COc1cc2ncc(-c3cc(F)c(OC)c(NS(=O)(=O)CC(F)(F)F)c3)n2cc1S(=O)(=O)C(C)(C)C: 8.60 to 9.00
2. CCCS(=O)(=O)Nc1cc(-c2cnc3cc(OC)c(C(=O)N4CCNCC4)cn23)cc(F)c1OC: 7.70 to 8.60
3. CC(C)(C)S(=O)(=O)c1cn2c(-c3ccc4ccnn4c3)cnc2cc1OCCO: < 7.70
4. CC(C)(O)COc1cc2ncc(-c3cc(Cl)c(N)nc3F)n2cc1S(=O)(=O)C(C)(C)C: 8.60 to 9.00
5. CC(C)(C)S(=O)(=O)c1cn2c(-c3cc(F)c(N)nc3F)cnc2cc1C(=O)NCCO: < 7.70
6. Cn1cc(-c2cc3ncc(-c4cc(F)c(N)nc4F)n3cc2S(=O)(=O)C(C)(C)C)cn1: 7.70 to 8.60

###

- EXPERIMENTAL_SYSTEM: binding of His-XIAP(BIR2)-avi fusion protein to GST-RIPK2 fusion protein (RIPK2/XIAP) (Homo sapiens)
- Construct: made in house; host or cells: baculovirus infected Sf9 cells
- Sequence (O43353 1-310 limits assumed): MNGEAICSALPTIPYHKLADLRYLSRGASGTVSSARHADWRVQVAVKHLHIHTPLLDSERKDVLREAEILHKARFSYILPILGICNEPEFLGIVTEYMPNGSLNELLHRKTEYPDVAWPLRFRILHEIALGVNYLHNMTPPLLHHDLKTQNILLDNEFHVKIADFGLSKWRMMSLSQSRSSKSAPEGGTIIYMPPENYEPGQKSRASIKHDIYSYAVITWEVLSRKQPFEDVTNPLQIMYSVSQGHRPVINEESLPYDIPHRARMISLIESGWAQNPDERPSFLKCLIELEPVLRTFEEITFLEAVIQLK
- METHOD_DESCRIPTION: RIPK2-XIAP binding competition PPI assay (TR-FRET)
- PARTICULARS: RIPK2/XIAP binding competition PPI assay; read-out: PPI IC50 bin
Reported IC50 is given for each of the following compounds.
VALUE_KIND: IC50

1. COc1cc2ncc(-c3cc(C)c4nn(C)cc4c3)n2cc1S(=O)(=O)C(C)(C)C [Example 97]: > 20 nM
2. COc1cc2ncc(-c3cc(F)c(N)nc3F)n2cc1S(=O)(=O)C(C)(C)c1nc(C)no1 [Example 64]: > 20 nM
3. CC(=O)COc1cc2ncc(-c3cc(Cl)c(N)nc3F)n2cc1S(=O)(=O)C(C)(C)C [Example 300]: 2.5 to 20 nM

###

- EXPERIMENTAL_SYSTEM: GST-RIPK2 fusion protein (human RIPK2, amino acids 1-310) (Homo sapiens)
- Construct: made in house; host or cells: baculovirus infected Sf9 cells
- METHOD_DESCRIPTION: RIPK2 binding competition assay (TR-FRET, Tracer 199 displacement)
- PARTICULARS: 10 nM Tracer 199, 1 nM GST-RIPK2, read-out: RIPK2 IC50
pIC50: −log10 of the molar value.
VALUE_KIND: pIC50

1) OCCCNc1cc(-c2cnc3ccc(C(F)(F)F)cn23)cc(F)n1 [Example 5]: < 7.70
2) CC(C)(C)S(=O)(=O)c1cn2c(-c3cc(F)c(N)nc3F)cnc2cc1-c1cn[nH]c1 [Example 31]: 7.70 to 8.60
3) COc1cc2ncc(-c3ccc4c(c3)OCC4O)n2cc1S(=O)(=O)C(C)(C)C (stereo not drawn) [Example 86]: < 7.70
4) COc1cc2ncc(-c3cc(F)c(N)nc3F)n2cc1C1(O)CCOCC1 [Example 75]: < 7.70
5) CC(C)(C)S(=O)(=O)c1cn2c(-c3cc(F)c(N)nc3F)cnc2cc1OCCN1CC(O)C1 [Example 41]: 7.70 to 8.60
6) COc1cc2ncc(-c3cc(F)c(OC)c(NS(=O)(=O)c4ccn(C)n4)c3)n2cc1S(=O)(=O)C(C)(C)C [Example 134]: 8.60 to 9.00
7) COc1cc2ncc(-c3ccc4c(C)nn(C)c4c3)n2cc1S(=O)(=O)C(C)(C)C [Example 108]: < 7.70
8) COc1cc2ncc(-c3cc(F)c(N)nc3F)n2cc1S(=O)(=O)N1CCNCC1 [Example 164]: < 7.70
9) COc1cc2ncc(-c3cc(F)c(N)nc3F)n2cc1S(=O)(=O)C1(C)CCN(C2COC2)CC1 [Example 124]: 7.70 to 8.60
10) COc1cc2ncc(-c3ccc4nc(N)[nH]c4c3)n2cc1S(=O)(=O)C(C)(C)C [Example 98]: 7.70 to 8.60
11) COc1cc2ncc(-c3cc(F)c(OC)c(NS(=O)(=O)c4cnn(C)c4)c3)n2cc1S(C)(=O)=O [Example 214]: > 9.00
12) CC(C)(C)S(=O)(=O)c1cn2c(-c3cc(Cl)c(N)nc3F)cnc2cc1OCC(F)(F)CN [Example 243]: 8.60 to 9.00
13) COc1cc2ncc(-c3cn(C)c4ncccc34)n2cc1S(=O)(=O)C(C)(C)C [Example 99]: 7.70 to 8.60
14) COc1cc2ncc(-c3cc(F)c(OC)c(NS(=O)(=O)c4cnn(CCO)c4)c3)n2cc1S(=O)(=O)C(C)(C)C [Example 227]: 8.60 to 9.00
15) CC(C)(C)S(=O)(=O)c1cn2c(-c3cc(F)c(N)nc3F)cnc2cc1OCC(F)CO (stereo not drawn) [Example 203]: 8.60 to 9.00
16) COc1cc2ncc(-c3cc(F)c(N)nc3F)n2cc1S(=O)(=O)C(C)(C)c1nc(C)no1 [Example 64]: < 7.70
17) CCC(C)(C)S(=O)(=O)c1cn2c(-c3cc(F)c(N)nc3F)cnc2cc1OC [Example 69]: 7.70 to 8.60
18) CCS(=O)(=O)Nc1cc(-c2cnn3cc(OC)c(N4C(=O)OCC4(C)C)nc23)cc(F)c1OC [Example 131]: 7.70 to 8.60

###

Reported Emax is given for each of the following molecules.
- EXPERIMENTAL_SYSTEM: binding of His-XIAP(BIR2)-avi fusion protein to GST-RIPK2 fusion protein (RIPK2/XIAP) (Homo sapiens)
- Construct: made in house; host or cells: baculovirus infected Sf9 cells
- METHOD_DESCRIPTION: RIPK2-XIAP binding competition PPI assay (TR-FRET)
- PARTICULARS: RIPK2/XIAP binding competition PPI assay, Amax; read-out: PPI Amax bin
VALUE_KIND: Emax

1. COc1cc2ncc(-c3ccc4nc(N)oc4c3)n2cc1S(=O)(=O)C(C)(C)C: < 30%
2. COc1cc2ncc(-c3cc(F)c(OC)c4c3cnn4CCO)n2cc1S(=O)(=O)C(C)(C)C: 55 to 80%
3. COc1cc2ncc(-c3ccc(N)nc3F)n2cc1S(=O)(=O)CCCO: > 80%
4. COCCOc1cc2ncc(-c3cc(F)c(N)nc3F)n2cc1S(=O)(=O)C(C)(C)C: > 80%
5. Cn1cc(-c2cc3ncc(-c4cc(F)c(N)nc4F)n3cc2S(=O)(=O)C(C)(C)C)cn1: > 80%
